Where do these numbers come from? They come from ChEMBL document CHEMBL5131389.

Test: MRT (0 to t) in Soviet Chinchilla rabbit at 8.1 mg/kg, iv administered as pluronic F127 formulation measured upto 72 hrs by high-performance liquid chromatography tandem mass spectrometric analysis
Format: ADME, organism-based, Oryctolagus cuniculus
Details: in vivo
property-label: MRT last at 72 h (h)
Report the figure in h without appending any unit label.

Any idea what its MRT last at 72 h is? The molecule is "CC(=O)O[C@@]12CO[C@@H]1C[C@H](O)[C@@]1(C)C(=O)[C@H](O)C3=C(C)[C@@H](OC(=O)[C@H](OC(=O)CCCc4cn(CCCNC(=O)[C@H](Cc5ccc(O)cc5)NC(=O)[C@H](Cc5ccccc5)NC(=O)CCC(=O)NCCCCCC(=O)N(CCCC[C@H](NC(=O)N[C@@H](CCC(=O)O)C(=O)O)C(=O)O)Cc5cccc(Cl)c5)nn4)[C@@H](NC(=O)OC(C)(C)C)c4ccccc4)C[C@@](O)([C@@H](OC(=O)c4ccccc4)[C@H]21)C3(C)C"
7.4

---

Assay: MRT (0 to t) in Albino Wistar rat at 15 mg/kg, iv administered as pluronic F127 formulation measured upto 72 hrs by high-performance liquid chromatography tandem mass spectrometric analysis
Assay type: ADME, organism-based
Conditions: in vivo
property-label: MRT last at 72 h (min)
Lab book: enter the figure in min, no units written.

Need MRT last at 72 h of "CC(=O)O[C@@]12CO[C@@H]1C[C@H](O)[C@@]1(C)C(=O)[C@H](O)C3=C(C)[C@@H](OC(=O)[C@H](OC(=O)CCCc4cn(CCCNC(=O)[C@H](Cc5ccc(O)cc5)NC(=O)[C@H](Cc5ccccc5)NC(=O)CCC(=O)NCCCCCC(=O)N(CCCC[C@H](NC(=O)N[C@@H](CCC(=O)O)C(=O)O)C(=O)O)Cc5cccc(Cl)c5)nn4)[C@@H](NC(=O)OC(C)(C)C)c4ccccc4)C[C@@](O)([C@@H](OC(=O)c4ccccc4)[C@H]21)C3(C)C" , thanks.
24

---

Experiment: AUC (0 to infinity) in Albino Wistar rat at 15 mg/kg, iv administered as pluronic F127 formulation measured upto 72 hrs by high-performance liquid chromatography tandem mass spectrometric analysis
Type: ADME, organism-based
Design: dose 15 mg/kg, time < 72 hrs, route iv
Conditions: in vivo
property-label: AUC(0-inf) (ng·h/mL)
Write the number in ng·h/mL without appending the unit.

Query (compound): "CC(=O)O[C@@]12CO[C@@H]1C[C@H](O)[C@@]1(C)C(=O)[C@H](O)C3=C(C)[C@@H](OC(=O)[C@H](OC(=O)CCCc4cn(CCCNC(=O)[C@H](Cc5ccc(O)cc5)NC(=O)[C@H](Cc5ccccc5)NC(=O)CCC(=O)NCCCCCC(=O)N(CCCC[C@H](NC(=O)N[C@@H](CCC(=O)O)C(=O)O)C(=O)O)Cc5cccc(Cl)c5)nn4)[C@@H](NC(=O)OC(C)(C)C)c4ccccc4)C[C@@](O)([C@@H](OC(=O)c4ccccc4)[C@H]21)C3(C)C" ; field requested: AUC(0-inf)
34000

---

Experiment: AUC (0 to t) in Soviet Chinchilla rabbit at 8.1 mg/kg, iv administered as pluronic F127 formulation measured upto 72 hrs by high-performance liquid chromatography tandem mass spectrometric analysis
Format: ADME, organism-based, Oryctolagus cuniculus
Set-up: dose 8.1 mg/kg, time < 72 hrs, route iv
Settings: in vivo
property-label: AUC(0-t) at 72 h (µg·h/mL)
Unit µg·h/mL implied. Number only.

For the molecule shown here, "CC(=O)O[C@@]12CO[C@@H]1C[C@H](O)[C@@]1(C)C(=O)[C@H](O)C3=C(C)[C@@H](OC(=O)[C@H](OC(=O)CCCc4cn(CCCNC(=O)[C@H](Cc5ccc(O)cc5)NC(=O)[C@H](Cc5ccccc5)NC(=O)CCC(=O)NCCCCCC(=O)N(CCCC[C@H](NC(=O)N[C@@H](CCC(=O)O)C(=O)O)C(=O)O)Cc5cccc(Cl)c5)nn4)[C@@H](NC(=O)OC(C)(C)C)c4ccccc4)C[C@@](O)([C@@H](OC(=O)c4ccccc4)[C@H]21)C3(C)C" , give the reported AUC(0-t) at 72 h.
253

---

Test: Volume of distribution in Albino Wistar rat at 15 mg/kg, iv administered as pluronic F127 formulation measured upto 72 hrs by high-performance liquid chromatography tandem mass spectrometric analysis
Type: ADME, organism-based
Details: in vivo
property-label: Vd
Entry format: amount then unit.

What does the record list as Vd for "CC(=O)O[C@@]12CO[C@@H]1C[C@H](O)[C@@]1(C)C(=O)[C@H](O)C3=C(C)[C@@H](OC(=O)[C@H](OC(=O)CCCc4cn(CCCNC(=O)[C@H](Cc5ccc(O)cc5)NC(=O)[C@H](Cc5ccccc5)NC(=O)CCC(=O)NCCCCCC(=O)N(CCCC[C@H](NC(=O)N[C@@H](CCC(=O)O)C(=O)O)C(=O)O)Cc5cccc(Cl)c5)nn4)[C@@H](NC(=O)OC(C)(C)C)c4ccccc4)C[C@@](O)([C@@H](OC(=O)c4ccccc4)[C@H]21)C3(C)C" ?
0.631 L/kg

---

Assay: AUC (0 to t) in Albino Wistar rat at 15 mg/kg, iv administered as pluronic F127 formulation measured upto 72 hrs by high-performance liquid chromatography tandem mass spectrometric analysis
Type: ADME, organism-based
Design: dose 15 mg/kg, time < 72 hrs, route iv
Conditions: in vivo
property-label: AUC(0-t) at 72 h (ng·h/mL)
Provide only the numeric value, understood in ng·h/mL.

I'd like to know its AUC(0-t) at 72 h. The compound in question is "CC(=O)O[C@@]12CO[C@@H]1C[C@H](O)[C@@]1(C)C(=O)[C@H](O)C3=C(C)[C@@H](OC(=O)[C@H](OC(=O)CCCc4cn(CCCNC(=O)[C@H](Cc5ccc(O)cc5)NC(=O)[C@H](Cc5ccccc5)NC(=O)CCC(=O)NCCCCCC(=O)N(CCCC[C@H](NC(=O)N[C@@H](CCC(=O)O)C(=O)O)C(=O)O)Cc5cccc(Cl)c5)nn4)[C@@H](NC(=O)OC(C)(C)C)c4ccccc4)C[C@@](O)([C@@H](OC(=O)c4ccccc4)[C@H]21)C3(C)C"
28000

---

Experiment: Acute toxicity in ICR mouse assessed as maximum tolerated dose administered intravenously as pluronic F127 formulation and measured for 14 days
Conditions: in vivo, route iv, time 14 day
property-label: MTD at 336 h (mg/kg)
Please reply with the bare figure in mg/kg and do not write the unit itself.

What value of MTD at 336 h has been recorded for this entry: "CC(=O)O[C@@]12CO[C@@H]1C[C@H](O)[C@@]1(C)C(=O)[C@H](O)C3=C(C)[C@@H](OC(=O)[C@H](OC(=O)CCCc4cn(CCCNC(=O)[C@H](Cc5ccc(O)cc5)NC(=O)[C@H](Cc5ccccc5)NC(=O)CCC(=O)NCCCCCC(=O)N(CCCC[C@H](NC(=O)N[C@@H](CCC(=O)O)C(=O)O)C(=O)O)Cc5cccc(Cl)c5)nn4)[C@@H](NC(=O)OC(C)(C)C)c4ccccc4)C[C@@](O)([C@@H](OC(=O)c4ccccc4)[C@H]21)C3(C)C"
183

---

Assay: Half-life in Soviet Chinchilla rabbit at 8.1 mg/kg, iv administered as pluronic F127 formulation measured upto 72 hrs by high-performance liquid chromatography tandem mass spectrometric analysis
Type: ADME, organism-based, Oryctolagus cuniculus
Settings: in vivo
property-label: half-life (h)
Report the figure in h without appending any unit label.

If you can, please state the reported half-life value of "CC(=O)O[C@@]12CO[C@@H]1C[C@H](O)[C@@]1(C)C(=O)[C@H](O)C3=C(C)[C@@H](OC(=O)[C@H](OC(=O)CCCc4cn(CCCNC(=O)[C@H](Cc5ccc(O)cc5)NC(=O)[C@H](Cc5ccccc5)NC(=O)CCC(=O)NCCCCCC(=O)N(CCCC[C@H](NC(=O)N[C@@H](CCC(=O)O)C(=O)O)C(=O)O)Cc5cccc(Cl)c5)nn4)[C@@H](NC(=O)OC(C)(C)C)c4ccccc4)C[C@@](O)([C@@H](OC(=O)c4ccccc4)[C@H]21)C3(C)C" .
8.1
